B1: library; numbered along this chain (parent)
chain: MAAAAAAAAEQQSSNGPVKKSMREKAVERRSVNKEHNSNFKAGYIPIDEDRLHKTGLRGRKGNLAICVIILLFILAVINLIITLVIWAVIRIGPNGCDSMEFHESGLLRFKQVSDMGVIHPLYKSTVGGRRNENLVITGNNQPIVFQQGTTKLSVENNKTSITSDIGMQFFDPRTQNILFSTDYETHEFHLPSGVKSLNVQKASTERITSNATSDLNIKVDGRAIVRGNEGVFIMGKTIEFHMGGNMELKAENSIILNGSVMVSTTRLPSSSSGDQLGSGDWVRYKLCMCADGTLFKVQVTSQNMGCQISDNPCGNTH

variants of: B1; assay: SGCB cell-surface expression functional score (HA stain, bin4 vs bin1, normalised to synonymous) (log10 ratio); higher = more cell-surface SGCB (functional)
Examples of variants with documented SGCB cell-surface expression functional score (log10) follow.
Just the number.

* N141V | -0.25

// sample Y285N , its SGCB cell-surface expression functional score (log10) was -0.74

// sample S105I , its SGCB cell-surface expression functional score (log10) was -0.75

// sample L57H , its SGCB cell-surface expression functional score (log10) was -0.36

// sample R267P , its SGCB cell-surface expression functional score (log10) was -0.19
